system: Vero E6; assay: cell viability relative to DMSO; higher = less toxic; details: 72 h; 10 nM
measure: cell viability (%)
Give bare numbers, in %.

{"columns": ["compound", "units", "cell viability"],
 "data": [
  ["Cc1cc(C(C#N)c2ccc(Cl)cc2)c(Cl)cc1NC(=O)c1cc(I)cc(I)c1O (configuration not stated)", "%", 98.2]
]}

Consider now this further compound.
# input Value lookup for cell viability; key = C[C@@H]1NC(=O)[C@@H]2CCCN2C(=O)[C@H](CC(N)=O)NC(=O)[C@@H]2CSSC[C@H](N)C(=O)N[C@H]3CSSC[C@H](NC1=O)C(=O)N[C@@H]([C@@H](C)O)C(=O)NCC(=O)N[C@H](C(=O)N[C@@H](Cc1ccc(O)cc1)C(=O)O)CSSC[C@H](NC(=O)[C@H](Cc1ccc(O)cc1)NC(=O)[C@H](CCC(=O)O)NC3=O)C(=O)N2 [linaclotide]
# output 106

====

What drug sensitivity score was measured for each of the following?
system: Vero E6; assay: drug sensitivity score (DSS) for viability; higher = more toxic; extreme values may be limits of the assay; details: 72 h
Answers are plain numbers.

Worked examples follow.
{"columns": ["compound", "subject_of_test", "drug sensitivity score"],
 "data": [
  ["O[C@@H](C[C@H]1c2ccccc2-c2cncn21)C1CCCCC1", "Vero E6", 0.7],
  ["CC[C@H]1[C@@H]2C[C@H]3[C@@H]4N(C)c5ccccc5[C@]45C[C@@H]([C@@H]2[C@H]5O)N3[C@@H]1O", "Vero E6", 0],
  ["CC(C)(C)C1CCc2c(sc(NC(=O)c3ccco3)c2C(=O)O)C1 (configuration not stated)", "Vero E6", 1.3],
  ["CC[C@@H](Nc1c(Nc2cccc(C(=O)N(C)C)c2O)c(=O)c1=O)c1ccc(C)o1", "Vero E6", 0]
]}

# per-item lookup of drug sensitivity score; items listed below
1. CC(C)C[C@H](NC(=O)[C@@H](Cc1c[nH]c2ccccc12)NC(=O)[C@H](Cc1ccc(O)cc1)NC(=O)[C@H](CO)NC(=O)[C@H](Cc1c[nH]c2ccccc12)NC(=O)[C@H](Cc1c[nH]cn1)NC(=O)[C@@H]1CCC(=O)N1)C(=O)N[C@@H](CCCNC(=N)N)C(=O)N1CCC[C@H]1C(=O)NCC(N)=O
2. CC(C)(C)NCC(O)c1ccccc1Cl (configuration not stated)

# output
1. 0
2. 0.3

# input # returns recorded drug sensitivity score (system: Vero E6) for Cc1c(C(=O)NN2CCCCC2)nn(-c2ccc(Cl)cc2Cl)c1-c1ccc(Cl)cc1
# output 0

====

tested on: HepG2; experiment: cell viability relative to DMSO; higher = less toxic; conditions: 72 h; 10 nM
Hi there, I'd appreciate the recorded cell viability for every entry that follows.
Give bare numbers, in %.

Examples from the recorded data:
{"columns": ["compound", "cell viability [%]"],
 "data": [
  ["Cc1oc(-c2ccccc2)nc1CCC(=O)c1ccc(CC2SC(=O)NC2=O)cc1 (centres undefined)", 95],
  ["COc1cccc(Nc2ncnn3ccc(CN4CC[C@@H](N)[C@H](O)C4)c23)c1", 102],
  ["O=C(C[S+]([O-])C(c1ccccc1)c1ccccc1)NO (centres undefined)", 88.7]
]}

# input What cell viability value was documented for this compound, CN([C@@H](Cc1ccc(OS(=O)(=O)c2cccc3cnccc23)cc1)C(=O)N1CCN(c2ccccc2)CC1)S(=O)(=O)c1cccc2cnccc12 ?
# output 110

====

system: HepG2; assay: cell viability relative to DMSO; higher = less toxic; details: 72 h; 10 nM
Assign cell viability to each entry below.
Numbers only, in %.

{"columns": ["molecule", "measure", "value"],
 "data": [
  ["COc1cc(CN2CCN(c3ccc(F)cc3)CC2)cc(OC)c1OC", "cell viability", 98.1]
]}

Okay, here is my list. What is cell viability for each of these?
1. COC(=O)C1=C(C)NC(C)=C(C(=O)OC(C)C)[C@@H]1c1cccc2nonc12
2. Cc1cccc(C)c1OCC(=O)N[C@@H](Cc1ccccc1)[C@@H](O)C[C@H](Cc1ccccc1)NC(=O)[C@H](C(C)C)N1CCCNC1=O
3. COc1ccc(COc2cc3oc(=O)c4cc(C(C)O)ccc4c3cc2OC)cc1 (centres undefined)

# output
103
106
100

====

system: U2OS; assay: cell viability relative to DMSO; higher = less toxic; conditions: 72 h; 1 nM
Consider the following compounds; for each one, report its cell viability.
Remember to follow the number with its unit.

{"columns": ["compound", "cell viability"],
 "data": [
  ["O=C1OC2(c3ccc(O)cc3Oc3cc(O)ccc32)c2ccccc21", "99.5%"],
  ["N#Cc1c(N)nc(SCC(N)=O)c(C#N)c1-c1ccc(OCC2CC2)cc1", "106%"],
  ["C/C(O)=C(\\C#N)C(=O)Nc1ccc(C(F)(F)F)cc1 [teriflunomide]", "102%"],
  ["O=C(NCCN1CCC2(CC1)C(=O)NCN2c1cccc(F)c1)c1ccc(F)c(F)c1", "103%"],
  ["Fc1ccc(Cn2c(NC3CCNCC3)nc3ccccc32)cc1", "95%"]
]}

Dear reader, for each entry below, please note its cell viability.
1. CCCC(=O)Nc1cccc(NC(=O)c2ccccc2Br)c1
2. CO[C@H]1C[C@H](O[C@H]2[C@H](C)O[C@@H](O[C@@H]3/C(C)=C/C[C@@H]4C[C@@H](C[C@]5(C=C[C@H](C)[C@@H](C6CCCCC6)O5)O4)OC(=O)[C@@H]4C=C(C)[C@@H](O)[C@H]5OC/C(=C\C=C\[C@@H]3C)[C@]54O)C[C@@H]2OC)O[C@@H](C)[C@@H]1O
3. C[N+](C)(C)CCOC(=O)CCC(=O)OCC[N+](C)(C)C [succinylcholine-chloride]
4. COc1nc(C)nc(Cl)c1NC1=NCCN1
5. CC=C1C(=O)C[C@H]2[C@@H]3CCC4=CC(=O)CC[C@]4(C)[C@H]3CC[C@]12C
6. CCOc1cc(C(C)(C)C)ccc1C1=N[C@@](C)(c2ccc(Cl)cc2)[C@@](C)(c2ccc(Cl)cc2)N1C(=O)N1CCN(CCCS(C)(=O)=O)CC1
7. CN1[C@@H]2CC[C@H]1C[C@@H](OC(=O)[C@H](CO)c1ccccc1)C2
8. Cc1ccc(OCCSc2ncccn2)c(Br)c1

# output
1. 95.3%
2. 98.1%
3. 98.7%
4. 98.7%
5. 100%
6. 97.6%
7. 98.9%
8. 97.8%

Consider the following items and state reported cell viability for each.
1. CN([C@@H](Cc1ccc(OS(=O)(=O)c2cccc3cnccc23)cc1)C(=O)N1CCN(c2ccccc2)CC1)S(=O)(=O)c1cccc2cnccc12
2. Nc1ccc(S(=O)(=O)c2ccc(N)cc2)cc1
3. CC(C)(C)NCC(O)c1ccccc1Cl (stereo unspecified)

# output
1: 101%; 2: 99.3%; 3: 99.7%

====

tested on: U2OS; assay: cell viability relative to DMSO; higher = less toxic; conditions: 72 h; 1 nM
measure: cell viability (%)
Give bare numbers, in %.

Solved entries:
{"columns": ["compound", "value"],
 "data": [
  ["CC(C)(C)n1nc(-c2cccc3ccccc23)c2c(N)ncnc21 [1-naphthyl-PP1]", 100],
  ["CN(C)c1ccc(/C=C2\\C(=O)Nc3ccccc32)cc1 [SU4312]", 99.3],
  ["CN[C@@H](C)[C@H]1[C@H](O)C[C@@]2(C)[C@@H]3CC[C@H]4C(C)(C)[C@@H](NC)CC[C@@]45C[C@@]35CC[C@]12C [cyclovirobuxin-D]", 101],
  ["O=C(NCC(=O)N1CCCC1)Nc1ccc2cnccc2c1 [SGC-707]", 99.2],
  ["CN1[C@@H]2CC[C@H]1C[C@@H](OC(=O)c1c[nH]c3ccccc13)C2 [tropisetron]", 104]
]}

Required: cell viability, one value per compound below.
1. CCS(=O)(=O)N1CCC[C@@H]2CN3CCc4cc(OC)ccc4[C@@H]3C[C@@H]21
2. Cc1noc(C)c1-c1cc(O)cc([C@@H](O)c2ccccc2)c1 [OXF-BD-02]
3. COC(=O)C1=C(C)NC(C)=C(C(=O)OCCN(C)Cc2ccccc2)C1c1cccc([N+](=O)[O-])c1 (stereo unspecified) [nicardipine]
4. CCC(=O)O[C@H]1[C@H](O[C@@H]2[C@@H](C)[C@H](O[C@H]3C[C@@](C)(OC)[C@@H](O)[C@H](C)O3)[C@@H](C)C(=O)O[C@H](CC)[C@@](C)(O)[C@H](O)[C@@H](C)C(=O)[C@H](C)C[C@@]2(C)O)O[C@H](C)C[C@@H]1N(C)C [erythromycin-estolate]
5. N=C(N)N/N=C/c1c(Cl)cccc1Cl [guanaben-acetate]
6. N#Cc1cccc(C(=O)Nc2cc(-c3ccccc3)nn2-c2ccccc2)c1 [CDPPB]
7. CCOc1ccn(-c2ccc(F)cc2)c(=O)c1C(=O)Nc1ccc(Oc2ccnc(N)c2Cl)c(F)c1
8. Cc1oc(-c2ccccc2)nc1CCC(=O)c1ccc(CC2SC(=O)NC2=O)cc1 (stereo unspecified) [darglitazone]

# output
1: 99.5; 2: 97.2; 3: 96.5; 4: 98.7; 5: 96.9; 6: 92.8; 7: 102; 8: 109

For every record below, what is its cell viability?
1. O=c1c(-c2ccccc2)c1-c1ccccc1 [diphencyprone]
2. COc1cc2nc(N3CCN(C(=O)C4CCCO4)CC3)nc(N)c2cc1OC (stereo unspecified) [terazosin]
3. O=C(CC1NCCCC1O)Cn1cnc2cc(Br)c(Cl)cc2c1=O (stereo unspecified) [halofuginone]

# output
98.9
97.8
98.9
